Parameter: pIC50. Scope: all listed entries.
ASSAY TARGET: human FGFR4 (Homo sapiens)
pIC50: −log10 of the molar value.

COMPOUND	pIC50
C=CC(=O)Nc1cn[nH]c1-c1n[nH]c2c1CCCC(c1cc(OC)cc(OC)c1F)C2 (single isomer, unassigned) [Compound S11-P4]	> 8.00
C=CC(=O)Nc1cnn(C)c1-c1n[nH]c2c1CCC(c1cc(OC)cc(OC)c1F)=C2 [Compound S5-P2]	7.00 to 8.00
COc1cc(OC)c(F)c([C@H]2CCc3c(-c4c(NC(=O)C5CO5)cnn4C)n[nH]c3C2)c1F (stereo partly shown) [Compound S24]	< 7.00
C=CC(=O)Nc1cnn(CC(F)(F)F)c1-c1n[nH]c2c1CCC(c1c(F)c(OC)cc(OC)c1F)C2 (single isomer, unassigned) [Compound S18-P1]	< 7.00
[2H]C([2H])([2H])n1ncc(NC(=O)C=C)c1-c1n[nH]c2c1CCC(c1c(F)c(OC)cc(OC)c1F)C2 (single isomer, unassigned) [Compound S16-P2]	> 8.00
C=CC(=O)Nc1ncn(C)c1-c1n[nH]c2c1CCC(c1c(F)c(OC)cc(OC)c1F)C2 (single isomer, unassigned) [Compound S3-P2]	7.00 to 8.00
C=CC(=O)Nc1cnn(CC)c1-c1n[nH]c2c1CC[C@@H](c1c(F)c(OC)cc(OC)c1F)C2 [Compound S14-P1]	7.00 to 8.00
C=CC(=O)Nc1cnn(CC(F)(F)F)c1-c1n[nH]c2c1CCC(c1c(F)c(OC)cc(OC)c1F)C2 (single isomer, unassigned) [Compound S18-P2]	< 7.00
C=CC(=O)NC1CCOCC1c1n[nH]c2c1CC[C@H](c1c(Cl)c(OC)cc(OC)c1Cl)C2 (single isomer, unassigned) [Compound S7-P1]	< 7.00
C=CC(=O)N[C@H]1COC[C@H]1c1n[nH]c2c1CC[C@H](c1c(F)c(OC)cc(OC)c1F)C2 [Compound S13-P1]	< 7.00

----------
ASSAY TARGET: human FGFR4 (Homo sapiens, UniProt P22455)
Sequence (P22455 460-802): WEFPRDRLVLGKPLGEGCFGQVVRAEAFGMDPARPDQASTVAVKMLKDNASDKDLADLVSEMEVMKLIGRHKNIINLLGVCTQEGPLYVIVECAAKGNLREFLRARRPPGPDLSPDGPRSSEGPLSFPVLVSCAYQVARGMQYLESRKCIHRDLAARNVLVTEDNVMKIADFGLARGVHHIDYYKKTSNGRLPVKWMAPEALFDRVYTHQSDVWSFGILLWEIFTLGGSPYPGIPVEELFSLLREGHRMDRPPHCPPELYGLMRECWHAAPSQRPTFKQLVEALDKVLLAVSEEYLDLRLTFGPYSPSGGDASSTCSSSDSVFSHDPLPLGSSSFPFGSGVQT

COMPOUND	ASSAY TARGET	IC50
C=CC(=O)N[C@@H]1COC[C@@H]1c1n[nH]c2c1CC[C@@H](c1c(Cl)c(OC)cc(OC)c1Cl)C2 [Compound S10-P2]	human FGFR4 (Homo sapiens, UniProt P22455)	> 100 nM
C=C(C)C(=O)Nc1cnn(C)c1-c1n[nH]c2c1CCC(c1c(Cl)c(OC)cc(OC)c1Cl)C2 (single isomer, unassigned) [Compound S2-P2]	human FGFR4 (Homo sapiens, UniProt P22455)	> 100 nM
C=CC(=O)N[C@@H]1COC[C@@H]1c1n[nH]c2c1CC[C@H](c1cc(OC)cc(OC)c1F)C2	human FGFR4 (Homo sapiens, UniProt P22455)	> 100 nM
C=C(F)C(=O)Nc1cnn(C)c1-c1n[nH]c2c1CCC(c1c(F)c(OC)cc(OC)c1F)C2 (single isomer, unassigned) [Compound S21-P2]	human FGFR4 (Homo sapiens, UniProt P22455)	> 100 nM
C=CC(=O)Nc1c[nH]nc1-c1n[nH]c2c1CCC(c1c(F)c(OC)cc(OC)c1F)C2 (single isomer, unassigned) [Compound S15-P2]	human FGFR4 (Homo sapiens, UniProt P22455)	< 10 nM
COc1cc(OC)c(F)c(C2CCc3c(-c4c(NC(C)=O)cnn4C)n[nH]c3C2)c1F (single isomer, unassigned) [Compound S19-P1]	human FGFR4 (Homo sapiens, UniProt P22455)	> 100 nM
